Tested on: K562
EXPERIMENTAL PROTOCOL: NCI tumour cell line growth inhibition, 48 h
Activity calls are given as the source filed them. No stated cut-off is given here; in the data, active = GI50 up to about 1.1 µM and inactive = higher.
Possible outcomes: true (1) for active, false (0) for inactive

COMPOUND: Nc1nc(Cl)c(N)c(NC23CC4CC(CC(C4)C2)C3)n1
SYSTEM UNDER TEST: K562
LABEL CLASS: false (0)
//
COMPOUND: O=C(/C=C/c1ccc(C(F)(F)F)cc1)c1c([O-])on[n+]1-c1ccccc1
SYSTEM UNDER TEST: K562
LABEL CLASS: true (1)
//
COMPOUND: C/C1=C\CC[C@@]2(C)O[C@@H]2[C@H]2OC(=O)C(C)C2C[C@H]1O (stereo partly drawn)
SYSTEM UNDER TEST: K562
LABEL CLASS: false (0)
//
COMPOUND: CCN(CC)C(=S)N/N=C1\C(=O)Nc2ccccc21
SYSTEM UNDER TEST: K562
LABEL CLASS: true (1)
//
COMPOUND: C1=C(c2ccccc2)SC(N2CCCCC2)S1 (stereo not drawn)
SYSTEM UNDER TEST: K562
LABEL CLASS: false (0)
//
COMPOUND: CC(=O)Nc1ccc(C2C(C(=O)Nc3ccccc3)=C(C)NC(C)=C2C(=O)Nc2ccccc2)cc1
SYSTEM UNDER TEST: K562
LABEL CLASS: false (0)
//
COMPOUND: COC(=O)c1cc(CC(C)C)c2c(c1)[nH]c1ccccc12
SYSTEM UNDER TEST: K562
LABEL CLASS: false (0)
//
COMPOUND: O=C1NC2CCC(C2)C1c1ccccc1 (stereo not drawn)
SYSTEM UNDER TEST: K562
LABEL CLASS: false (0)
//
COMPOUND: CN(C)CCNc1ccc([N+](=O)[O-])c2sc3ccccc3c(=O)c12
SYSTEM UNDER TEST: K562
LABEL CLASS: false (0)
//
COMPOUND: CCN(CC)C(=O)CCn1ccc(=O)[nH]c1=O
SYSTEM UNDER TEST: K562
LABEL CLASS: false (0)
//
COMPOUND: O=C1c2ccccc2C(=O)c2nc3c(O)cccc3cc21
SYSTEM UNDER TEST: K562
LABEL CLASS: false (0)
//
COMPOUND: Cc1c2c(cc3c(=O)ccn(CCN(C)C)c13)c(=O)ccn2CCN(C)C
SYSTEM UNDER TEST: K562
LABEL CLASS: false (0)
//
COMPOUND: COc1ccc(C2CC(C)(O)Oc3cc4c(cc32)OCO4)cc1 (stereo not drawn)
SYSTEM UNDER TEST: K562
LABEL CLASS: false (0)
//
COMPOUND: COc1ccc(/C(Cl)=C(\C=O)c2ccc(Cl)cc2)cc1
SYSTEM UNDER TEST: K562
LABEL CLASS: false (0)
//
COMPOUND: Clc1cccc(Cl)c1C1SCC2=Nc3ccccc3CN21 (stereo not drawn)
SYSTEM UNDER TEST: K562
LABEL CLASS: false (0)
//
COMPOUND: C/C=C(/C)c1cnc(CC(C)C)c(=O)[nH]1
SYSTEM UNDER TEST: K562
LABEL CLASS: false (0)
//
COMPOUND: COc1ccc([C@H]2CC3C(=O)N(c4ccc(OC)cc4)C(=O)C3c3[nH]c4ccccc4c32)cc1 (stereo partly drawn)
SYSTEM UNDER TEST: K562
LABEL CLASS: false (0)
//
COMPOUND: CC(C)Cn1cnnc1NS(=O)(=O)c1cc(C(=O)NN)c(Cl)cc1S
SYSTEM UNDER TEST: K562
LABEL CLASS: false (0)
//
COMPOUND: CC(C)c1ccccc1NC(=O)CCC(=O)NN
SYSTEM UNDER TEST: K562
LABEL CLASS: false (0)
//
COMPOUND: O=C1c2ccccc2C2(c3ccc(Cl)cc3)NCc3ccccc3CN12 (stereo not drawn)
SYSTEM UNDER TEST: K562
LABEL CLASS: false (0)
//
COMPOUND: Cc1nnc(SCc2nc(C#N)c(C#N)nc2CSc2nnc(C)s2)s1
SYSTEM UNDER TEST: K562
LABEL CLASS: false (0)
//
COMPOUND: Cc1cc(N)c2cc(NC(=O)Nc3ccc4nc(C)cc(N)c4c3)ccc2n1
SYSTEM UNDER TEST: K562
LABEL CLASS: false (0)
//
COMPOUND: CCOC(=O)c1csc(CCCCCCc2nc(C(=O)OCC)cs2)n1
SYSTEM UNDER TEST: K562
LABEL CLASS: false (0)

Source of measurements: ChEMBL document CHEMBL1201862
